Assignment: determine reported viability, T/C for the given molecules.
System: 292921-168-R-J2-PDC KRAS tumor spheroid viability
assaySummary: Anticancer human tumor 292921-168-R-J2-PDC patient-derived pancreatic carcinoma cell line growth inhibition [KRAS2]
conditionSummary: second compound 0.1 µM; first compound 0.316 µM; stronger effect = lower value; spheroids with HUVEC and MSC
Give bare numbers, in %.

Completed entries (count: 4):
- molecule: "COc1cc2nccc(Oc3ccc(NC(=O)C4(C(=O)Nc5ccc(F)cc5)CC4)cc3)c2cc1OC + C=CC(=O)N1CCN(c2nc(=O)n(-c3c(C)ccnc3C(C)C)c3nc(-c4c(O)cccc4F)c(F)cc23)C(C)C1"
  targetOfAssay: "292921-168-R-J2-PDC KRAS tumor spheroid viability"
  readoutNumber: 103
- molecule: "Cn1nccc1Nc1nccc(-c2cc3c(s2)C(C)(C)N(CCN2CCOCC2)C3=O)n1 + C=CC(=O)N1CCN(c2nc(OCC3CCCN3C)nc3c2CCN(c2cccc4cccc(C)c24)C3)CC1CC#N"
  targetOfAssay: "292921-168-R-J2-PDC KRAS tumor spheroid viability"
  readoutNumber: 21.6
- molecule: "Cn1nccc1Nc1nccc(-c2cc3c(s2)C(C)(C)N(CCN2CCOCC2)C3=O)n1 + CC1OCC2(CCN(c3cnc(Sc4ccnc(N)c4Cl)c(N)n3)CC2)C1N"
  targetOfAssay: "292921-168-R-J2-PDC KRAS tumor spheroid viability"
  readoutNumber: 19.1
- molecule: "O=C(c1cc(Cc2n[nH]c(=O)c3ccccc23)ccc1F)N1CCN(C(=O)C2CC2)CC1 + C=CC(=O)N1CCN(c2nc(=O)n(-c3c(C)ccnc3C(C)C)c3nc(-c4c(O)cccc4F)c(F)cc23)C(C)C1"
  targetOfAssay: "292921-168-R-J2-PDC KRAS tumor spheroid viability"
  readoutNumber: 88

Next molecule, please.
Request: Look at this molecule and give its reported viability, T/C. COc1cc2nccc(Oc3ccc(NC(=O)C4(C(=O)Nc5ccc(F)cc5)CC4)cc3)c2cc1OC + CNCc1ccccc1-c1csc(C(C)Nc2nc(C)nc3cc(OC)c(OC)cc23)c1
Result: 82.5

* * *

Tested on: 292921-168-R-J2-PDC KRAS tumor spheroid viability
assaySummary: Anticancer human tumor 292921-168-R-J2-PDC cell line growth inhibition [KRAS2]; active = viability on the fitted dose curve at most 10% of control; inactive = the rest;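 note: drug exposure lasted seven days after spheroids formed for three days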
conditionSummary: second compound 10 µM; first compound 1 µM; spheroids with HUVEC and MSC
Parameter call: string, one of TRUE (active), FALSE (inactive)

// below: answered compounds
- compound: "CCNC(=O)CC1N=C(c2ccc(Cl)cc2)c2cc(OC)ccc2-n2c(C)nnc21 (stereo not drawn) + CC1OCC2(CCN(c3cnc(Sc4ccnc(N)c4Cl)c(N)n3)CC2)C1N"
  answerLabel: "FALSE"
- compound: "CCN1CCN(Cc2ccc(Nc3ncc(F)c(-c4cc(F)c5nc(C)n(C(C)C)c5c4)n3)nc2)CC1 + COc1cc2nc(C)nc(NC(C)c3cc(N)cc(C(F)(F)F)c3)c2cc1OC1CCOC1"
  answerLabel: "TRUE"

Would you kindly look at the next entry?
Request: Short answer needed: outcome of this test for COC(=O)c1ccc2c(C(=Nc3ccc(N(C)C(=O)CN4CCN(C)CC4)cc3)c3ccccc3)c(O)[nH]c2c1 + CNCc1ccccc1-c1csc(C(C)Nc2nc(C)nc3cc(OC)c(OC)cc23)c1 ?
Result: TRUE

* * *

Tested on: 292921-168-R-J2-PDC KRAS tumor spheroid viability
assaySummary: Anticancer human tumor 292921-168-R-J2-PDC cell line growth inhibition [KRAS2];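 note: drug exposure lasted seven days after spheroids formed for three days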
conditionSummary: curve of first compound; second compound 3.16 µM; spheroids with HUVEC and MSC
pIC50: −log10 of the molar value.
Assignment: determine reported pIC50 for the given compounds.

- compound: "CC(=O)OC12COC1CC(O)C1(C)C(=O)C(O)C3=C(C)C(OC(=O)C(O)C(NC(=O)OC(C)(C)C)c4ccccc4)CC(O)(C(OC(=O)c4ccccc4)C21)C3(C)C (stereo not drawn) + C=CC(=O)N1CCN(c2nc(OCC3CCCN3C)nc3c2CCN(c2cccc4cccc(C)c24)C3)CC1CC#N"
  metric: "pIC50"
  result: "> 8.00"
- compound: "CC1COCCN1c1cc(-c2ccnn2C)c2ccnc(-c3ccn[nH]3)c2n1 (stereo not drawn) + C=CC(=O)N1CCN(c2nc(OCC3CCCN3C)nc3c2CCN(c2cccc4cccc(C)c24)C3)CC1CC#N"
  metric: "pIC50"
  result: "> 8.00"

Request: Look at this compound and give its reported pIC50. O=C(c1cc(Cc2n[nH]c(=O)c3ccccc23)ccc1F)N1CCN(C(=O)C2CC2)CC1 + C=CC(=O)N1CCN(c2nc(=O)n(-c3c(C)ccnc3C(C)C)c3nc(-c4c(O)cccc4F)c(F)cc23)C(C)C1
Result: 5.99

* * *

System: 292921-168-R-J2-PDC KRAS tumor spheroid viability
assaySummary: Anticancer human tumor 292921-168-R-J2-PDC cell line growth inhibition [KRAS2];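 note: drug exposure lasted seven days after spheroids formed for three days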;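 for viability, T/C: percent of DMSO vehicle control viability which is 100%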
conditionSummary: second compound 10 µM; first compound 0.0316 µM; stronger effect = lower value; spheroids with HUVEC and MSC
Assignment: determine reported viability, T/C for the given compounds.

- compound: "CC(=O)Nc1cccc(-n2c(=O)n(C3CC3)c(=O)c3c(Nc4ccc(I)cc4F)n(C)c(=O)c(C)c32)c1 + CC1OCC2(CCN(c3cnc(Sc4ccnc(N)c4Cl)c(N)n3)CC2)C1N"
  result: "4.49%"
- compound: "O=C(c1cc(Cc2n[nH]c(=O)c3ccccc23)ccc1F)N1CCN(C(=O)C2CC2)CC1 + CNCc1ccccc1-c1csc(C(C)Nc2nc(C)nc3cc(OC)c(OC)cc23)c1"
  result: "0.33%"
- compound: "COc1cc2nccc(Oc3ccc(NC(=O)C4(C(=O)Nc5ccc(F)cc5)CC4)cc3)c2cc1OC + COc1cc2nc(C)nc(NC(C)c3cc(N)cc(C(F)(F)F)c3)c2cc1OC1CCOC1"
  result: "45.1%"
- compound: "CN(C)C/C=C/C(=O)Nc1cc2c(Nc3ccc(F)c(Cl)c3)ncnc2cc1O[C@H]1CCOC1 + C=CC(=O)N1CCN(c2nc(=O)n(-c3c(C)ccnc3C(C)C)c3nc(-c4c(O)cccc4F)c(F)cc23)C(C)C1"
  result: "20.9%"
- compound: "COC(=O)c1ccc2c(C(=Nc3ccc(N(C)C(=O)CN4CCN(C)CC4)cc3)c3ccccc3)c(O)[nH]c2c1 + COc1cc2nc(C)nc(NC(C)c3cc(N)cc(C(F)(F)F)c3)c2cc1OC1CCOC1"
  result: "49%"

Each compound below has a reported value. Please supply its viability, T/C.
1. Cn1nccc1Nc1nccc(-c2cc3c(s2)C(C)(C)N(CCN2CCOCC2)C3=O)n1 + C=CC(=O)N1CCN(c2nc(=O)n(-c3c(C)ccnc3C(C)C)c3nc(-c4c(O)cccc4F)c(F)cc23)C(C)C1
2. CC1COCCN1c1cc(-c2ccnn2C)c2ccnc(-c3ccn[nH]3)c2n1 (stereo not given) + C=CC(=O)N1CCN(c2nc(=O)n(-c3c(C)ccnc3C(C)C)c3nc(-c4c(O)cccc4F)c(F)cc23)C(C)C1
3. CC1(C)CCC(CN2CCN(c3ccc(C(=O)NS(=O)(=O)c4ccc(NCC5CCOCC5)c([N+](=O)[O-])c4)c(Oc4cnc5[nH]ccc5c4)c3)CC2)=C(c2ccc(Cl)cc2)C1 + COc1cc2nc(C)nc(NC(C)c3cc(N)cc(C(F)(F)F)c3)c2cc1OC1CCOC1
4. CC(C)n1nc(-c2ccc3oc(N)nc3c2)c2c(N)ncnc21 + CC1OCC2(CCN(c3cnc(Sc4ccnc(N)c4Cl)c(N)n3)CC2)C1N
5. COc1cc2nccc(Oc3ccc(NC(=O)C4(C(=O)Nc5ccc(F)cc5)CC4)cc3)c2cc1OC + CC1OCC2(CCN(c3cnc(Sc4ccnc(N)c4Cl)c(N)n3)CC2)C1N

Result:
1: 25.2%; 2: 12.7%; 3: 36.8%; 4: 12.8%; 5: 31.7%

* * *

System: 292921-168-R-J2-PDC KRAS tumor spheroid viability
assaySummary: Anticancer human tumor 292921-168-R-J2-PDC cell line growth inhibition [KRAS2];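 note: drug exposure lasted seven days after spheroids formed for three days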;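 for viability, T/C: percent of DMSO vehicle control viability which is 100%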
conditionSummary: second compound 0.1 µM; first compound 10 µM; stronger effect = lower value; spheroids with HUVEC and MSC
Assignment: determine reported viability, T/C for the given compounds.
Numbers only, in %.

- compound: "COc1cc2nccc(Oc3ccc(NC(=O)C4(C(=O)Nc5ccc(F)cc5)CC4)cc3)c2cc1OC + CC1OCC2(CCN(c3cnc(Sc4ccnc(N)c4Cl)c(N)n3)CC2)C1N"
  viability, T/C (%): 19
- compound: "CC1(C)CCC(CN2CCN(c3ccc(C(=O)NS(=O)(=O)c4ccc(NCC5CCOCC5)c([N+](=O)[O-])c4)c(Oc4cnc5[nH]ccc5c4)c3)CC2)=C(c2ccc(Cl)cc2)C1 + COc1cc2nc(C)nc(NC(C)c3cc(N)cc(C(F)(F)F)c3)c2cc1OC1CCOC1"
  viability, T/C (%): 14.3
- compound: "COc1cc2nccc(Oc3ccc(NC(=O)C4(C(=O)Nc5ccc(F)cc5)CC4)cc3)c2cc1OC + C=CC(=O)N1CCN(c2nc(OCC3CCCN3C)nc3c2CCN(c2cccc4cccc(C)c24)C3)CC1CC#N"
  viability, T/C (%): 20.6
- compound: "CC(C)NCC(C(=O)N1CCN(c2ncnc3c2C(C)CC3O)CC1)c1ccc(Cl)cc1 (stereo not given) + C=CC(=O)N1CCN(c2nc(=O)n(-c3c(C)ccnc3C(C)C)c3nc(-c4c(O)cccc4F)c(F)cc23)C(C)C1"
  viability, T/C (%): 50.9
- compound: "Cn1nccc1Nc1nccc(-c2cc3c(s2)C(C)(C)N(CCN2CCOCC2)C3=O)n1 + CC1OCC2(CCN(c3cnc(Sc4ccnc(N)c4Cl)c(N)n3)CC2)C1N"
  viability, T/C (%): 11.7
- compound: "COc1cc2nccc(Oc3ccc(NC(=O)C4(C(=O)Nc5ccc(F)cc5)CC4)cc3)c2cc1OC + COc1cc2nc(C)nc(NC(C)c3cc(N)cc(C(F)(F)F)c3)c2cc1OC1CCOC1"
  viability, T/C (%): 21.1
- compound: "COc1cc(Nc2ncc3c(n2)-c2ccc(Cl)cc2C(c2c(F)cccc2OC)=NC3)ccc1C(=O)O + CC1OCC2(CCN(c3cnc(Sc4ccnc(N)c4Cl)c(N)n3)CC2)C1N"
  viability, T/C (%): 14.1
- compound: "CC1(C)CCC(CN2CCN(c3ccc(C(=O)NS(=O)(=O)c4ccc(NCC5CCOCC5)c([N+](=O)[O-])c4)c(Oc4cnc5[nH]ccc5c4)c3)CC2)=C(c2ccc(Cl)cc2)C1 + C=CC(=O)N1CCN(c2nc(=O)n(-c3c(C)ccnc3C(C)C)c3nc(-c4c(O)cccc4F)c(F)cc23)C(C)C1"
  viability, T/C (%): 8.37

Each compound below has a reported value. Please supply its viability, T/C.
1. CCNC(=O)CC1N=C(c2ccc(Cl)cc2)c2cc(OC)ccc2-n2c(C)nnc21 (stereo not given) + C=CC(=O)N1CCN(c2nc(OCC3CCCN3C)nc3c2CCN(c2cccc4cccc(C)c24)C3)CC1CC#N
2. COC(=O)c1ccc2c(C(=Nc3ccc(N(C)C(=O)CN4CCN(C)CC4)cc3)c3ccccc3)c(O)[nH]c2c1 + CC1OCC2(CCN(c3cnc(Sc4ccnc(N)c4Cl)c(N)n3)CC2)C1N
3. Cn1nccc1Nc1nccc(-c2cc3c(s2)C(C)(C)N(CCN2CCOCC2)C3=O)n1 + C=CC(=O)N1CCN(c2nc(OCC3CCCN3C)nc3c2CCN(c2cccc4cccc(C)c24)C3)CC1CC#N

Result:
1. 34.3
2. 0.41
3. 11.6
